- Test system: NF-κB
- Assay Text: NF-κB-dependent luciferase reporter gene assay, HeLa κB-transformed cells, TPA stimulated
- Assay type: cell-based
- Condition Parameters: Homo sapiens, HeLa, 8 h treatment, TPA 25 ng/ml 2 h after exposure, read-out: NF-κB, IC50 (concentration at which the compound halved the NF-κB activity)
Assign labels as follows, please: class 1 for IC50 below 40 µM; class 0 for IC50 equal to or exceeding 40 µM.

Task item: Identify whether the compound COC(=O)CCS[C@H]1CC(=O)C[C@@H]1O[Si](C)(C)C(C)(C)C [CTM-88] records IC50 below 40 µM.
Reply: class 0

====

- System: 37RC cells
- Assay Text: in vitro
- Format: cell-based
- Condition Parameters: 24 h treatment, read-out: LC50 (50% lethal dose/concentration), Neutral Red
Measured Quantity: CC50 (µM)
Entry rule: numbers only, all in µM.

Task item: Value lookup for CC50; key = CC(C)(C)C(=O)O[C@H]1[C@H](Sc2ccc3ccccc3c2)CC(=O)C1(C)C (stereo in doubt)
Reply: 22
